Entries and their measured inhibition follow.
experiment: H1N1 influenza NS1A inhibitors, functional cell based assay (AID 504329); details: percent inhibition, at 12.5 µM, stronger effect = higher value
The campaign covered roughly 340,000 compounds. About 1,000 (0.29%) were called active. Only a sample is shown. Entries with a potency or affinity are not part of this list.
Provide only the numeric value, understood in %.

1) Cc1ccc(CN2CCN(Cc3cn(C(C)C)c4ccccc34)CC2CCO)o1 (configuration not stated) | 14.6
2) Nc1ccc(NC(=O)c2ccccc2)c2c1C(=O)c1ccccc1C2=O | 24.3

Now turn to the next compound.
Query: I have this compound here, COc1ccc(/C=C/C(=O)NC(=S)NNC(=O)c2c(-c3ccccc3)noc2C)cc1 , and I need its recorded inhibition.
Response: -5.37

src = PubChem BioAssay AID504329
